// provenance: patent US5594006A

- SYSTEM_NAME: Interstitial collagenase (Homo sapiens)
- Construct: endogenous in cells
- Sequence (P03956 100-469): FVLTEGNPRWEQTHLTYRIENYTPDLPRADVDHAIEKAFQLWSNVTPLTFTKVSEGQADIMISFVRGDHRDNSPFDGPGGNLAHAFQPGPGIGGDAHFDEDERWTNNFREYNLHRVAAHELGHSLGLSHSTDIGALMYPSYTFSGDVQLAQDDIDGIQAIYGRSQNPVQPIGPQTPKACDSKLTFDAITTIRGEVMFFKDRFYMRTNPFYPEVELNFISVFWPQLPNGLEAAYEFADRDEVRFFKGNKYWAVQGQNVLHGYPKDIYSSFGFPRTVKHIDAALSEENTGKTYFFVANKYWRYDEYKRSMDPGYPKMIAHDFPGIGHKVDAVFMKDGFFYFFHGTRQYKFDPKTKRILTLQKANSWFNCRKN
- TEST_METHOD_NOTES: Interstitial collagenase inhibiting activity (fluorescence labeled collagen)
- ASSAY_CONTEXT: from human fibroblast cell (Detroit 551); 2 hours at 35° C., pH 7.5
pIC50: −log10 of the molar value.
READOUT_TYPE: pIC50

Prompt: Entry CON1C(=O)[C@@H](NC(=O)[C@H](CC(C)C)C(Cc2ccc3c(c2)OCO3)C(=O)NO)Cc2ccccc21 (stereo partly shown) : reported pIC50 = ?
Completion: 10.19

Prompt: // same read-out, input: CCON1C(=O)[C@@H](NC(=O)[C@@H](CC(=O)NO)CC(C)C)Cc2ccccc21
Completion: 7.39

Prompt: // same read-out, input: C#CCN1C(=O)[C@@H](NC(=O)[C@H](CC(C)C)[C@H](C)C(=O)NO)Cc2ccccc21
Completion: 7.70

Prompt: // same read-out, input: C=CCN1C(=O)[C@@H](NC(=O)[C@H](CC(C)C)[C@H](C)C(=O)NO)Cc2ccccc21
Completion: 8.00

Prompt: // same read-out, input: CON1C(=O)[C@@H](NC(=O)[C@H](CC(C)C)[C@H](C)C(=O)NO)Cc2ccccc21
Completion: 7.66

P. COCOCCN1C(=O)[C@@H](NC(=O)[C@@H](CC(=O)NO)CC(C)C)Cc2ccccc21
Q. COc1ccc2c(c1)NC(=O)[C@@H](NC(=O)[C@@H](CC(=O)NO)CC(C)C)C2
R. CCOCC[C@H](CC(=O)NO)C(=O)N[C@H]1Cc2ccccc2N(OC)C1=O
S. CC(C)C[C@H](CC(=O)NO)C(=O)N[C@H]1Cc2ccccc2N(CC(N)=O)C1=O
Prompt: Sort by pIC50, descending. Quick reminder: the answer is the labels in the order asked.
Completion: S, P, Q, R
(S: 7.51, P: 6.85, Q: 6.35, R: 5.43)

P. COCON1C(=O)[C@@H](NC(=O)[C@@H](CC(=O)NO)CC(C)C)Cc2ccccc21
Q. CC(C)C[C@@H](C(=O)N[C@H]1Cc2ccccc2NC1=O)[C@H](CSc1cccs1)C(=O)NO
Prompt: Which value of pIC50 is numerically greater: that of P or that of Q ? Identify your selection by its label.
Completion: Q
(Q: 8.62, P: 6.43)

A. CON1C(=O)[C@@H](NC(=O)[C@@H](CC(=O)NO)CC(C)C)Cc2ccccc21
B. CC(=O)SC[C@H](C(=O)NO)[C@@H](CC(C)C)C(=O)N[C@H]1Cc2ccccc2NC1=O
Prompt: Lab log: flag the item ( A or B ) with the smaller pIC50 figure. Identify your selection by its label.
Completion: B
